Assay: Anticancer activity against human H460 cells by HTS assay
Type: functional, cell-based
Conditions: NCI-H460
Quantity: IC50 (µM)

{"Smiles": "CCCCOc1cc(O)c2c(=O)c(O)c(-c3ccc(OCCCC)c(O)c3)oc2c1", "Measurement units": "µM", "Recorded number": 3.16}

(1) CCCOc1c(-c2ccc(O)c(O)c2)oc2cc(O)cc(O)c2c1=O
(2) CCOc1cc(O)c2c(=O)c(OCC)c(-c3ccc(OCC)c(O)c3)oc2c1
Request: Sorting by IC50 in descending order, would 1 or 2 appear first? Mark your answer with the label of the selected entry.
Response: 2

---

Experiment: Anticancer activity against human LOXIMVI cells by HTS assay
Format: functional, cell-based
Conditions: LOX IMVI
pIC50: −log10 of the molar value.
Quantity: pIC50

(I) COc1cc(O)c2c(=O)c(OC)c(-c3ccc(O)c(O)c3)oc2c1
(II) CCOc1cc(O)c2c(=O)c(OCC)c(-c3ccc(O)c(O)c3)oc2c1
(III) CCCOc1cc(O)c2c(=O)c(O)c(-c3ccc(OCCC)c(O)c3)oc2c1
Request: Kindly sort the 3 compounds above from the smallest to the largest pIC50. Would you mind listing the labels in the order requested?
Response: I, II, III
(I: 4.62, II: 4.82, III: 5.43)

---

Assay: Anticancer activity against human SKBR cells by HTS assay
Assay type: functional, cell-based
Quantity: IC50

These recorded examples may help you get a feel for the data.
{"Smiles": "CCOc1c(-c2ccc(O)c(O)c2)oc2cc(O)cc(O)c2c1=O", "Result": "> 50 µM"}
{"Smiles": "CCCCOc1cc(O)c2c(=O)c(OCCCC)c(-c3ccc(OCCCC)c(O)c3)oc2c1", "Result": "> 50 µM"}
{"Smiles": "CCCCOc1cc(O)c2c(=O)c(OCCCC)c(-c3ccc(OCCCC)c(OCCCC)c3)oc2c1", "Result": "> 50 µM"}
{"Smiles": "CCOc1cc(O)c2c(=O)c(O)c(-c3ccc(OCC)c(O)c3)oc2c1", "Result": "> 50 µM"}
{"Smiles": "CCCOc1cc(O)c2c(=O)c(OCCC)c(-c3ccc(OCCC)c(OCCC)c3)oc2c1", "Result": "> 50 µM"}
{"Smiles": "CCOc1cc(O)c2c(=O)c(OCC)c(-c3ccc(OCC)c(OCC)c3)oc2c1", "Result": "> 50 µM"}
{"Smiles": "COc1cc(O)c2c(=O)c(OC)c(-c3ccc(OC)c(OC)c3)oc2c1", "Result": "> 50 µM"}
{"Smiles": "COc1c(-c2ccc(O)c(O)c2)oc2cc(O)cc(O)c2c1=O", "Result": "13.9 µM"}

Memo: CCOc1ccc(-c2oc3cc(O)cc(O)c3c(=O)c2O)cc1O , reported IC50: 3.19 µM

Please fill in: IC50 reported for CCCOc1c(-c2ccc(O)c(O)c2)oc2cc(O)cc(O)c2c1=O = 0.45 µM

Reported IC50 ( CCOc1cc(O)c2c(=O)c(OCC)c(-c3ccc(O)c(O)c3)oc2c1 ) = 6.26 µM

---

System: A549
Assay: Anticancer activity against human A549 cells by HTS assay
Format: functional, cell-based
Quantity: IC50 (µM)

{"Smiles": "CCOc1cc(O)c2c(=O)c(OCC)c(-c3ccc(OCC)c(OCC)c3)oc2c1", "Measurement units": "µM", "Recorded number": 47.6}
{"Smiles": "CCOc1cc(O)c2c(=O)c(OCC)c(-c3ccc(O)c(O)c3)oc2c1", "Measurement units": "µM", "Recorded number": 1.19}
{"Smiles": "COc1cc(O)c2c(=O)c(OC)c(-c3ccc(O)c(O)c3)oc2c1", "Measurement units": "µM", "Recorded number": 5.4}
{"Smiles": "CCCCOc1ccc(-c2oc3cc(O)cc(O)c3c(=O)c2O)cc1O", "Measurement units": "µM", "Recorded number": 5.44}
{"Smiles": "CCCCOc1cc(O)c2c(=O)c(OCCCC)c(-c3ccc(OCCCC)c(OCCCC)c3)oc2c1", "Measurement units": "µM", "Recorded number": 48.4}
{"Smiles": "O=c1c(O)c(-c2ccc(O)c(O)c2)oc2cc(O)cc(O)c12", "Measurement units": "µM", "Recorded number": 6.2}

(P) CCOc1ccc(-c2oc3cc(O)cc(O)c3c(=O)c2O)cc1O
(Q) CCCOc1cc(O)c2c(=O)c(O)c(-c3ccc(OCCC)c(O)c3)oc2c1
(R) CCCCOc1c(-c2ccc(O)c(O)c2)oc2cc(O)cc(O)c2c1=O
Request: Order these by IC50, descending, and give the full ranking. Please list the labels according to the requested order.
Response: R, Q, P
(R: 13.4 µM, Q: 4.02 µM, P: 1.24 µM)
